- protocol_description: GHS categories as the set defines them, by LD50: 1 up to 5, 2 up to 50, 3 up to 300, 4 up to 2000, 5 above 2000 mg/kg
- applied_conditions: rat; in vivo; po
readout: GHS category

Solved entries:
>  <molecule>
CC1OC(OC2CCC(OC3C(O)CC(c4ccc5c(c4O)C(=O)C4=C(C5=O)C5(O)C(=O)CC(C)(OC6CCC(OC7C=CC(=O)C(C)O7)C(C)O6)CC5(O)C=C4)OC3C)OC2C)C=CC1=O (stereo unspecified)

>  <GHS category>
4

$$$$
>  <molecule>
COc1cc(S(=O)(=O)O)c(C)cc1/N=N/c1c(O)ccc2cc(S(=O)(=O)O)ccc12

>  <GHS category>
5

$$$$
>  <molecule>
CC(C)(C)C1CCC(C2=C(O)c3ccccc3C(=O)C2=O)CC1 (stereo unspecified)

>  <GHS category>
5

$$$$
>  <molecule>
CC1(C)CC[C@@]2(C(=O)O)CC[C@@]3(C)C(=CC[C@H]4[C@]5(C)CC[C@@H](O)C(C)(C)[C@H]5CC[C@@]43C)[C@H]2C1 (racemic)

>  <GHS category>
5

$$$$
>  <molecule>
C=C[Si](C)(C)O[Si](C)(C)C=C

>  <GHS category>
5

$$$$
>  <molecule>
COc1ccc(C=C(C(=O)Nc2ccccc2C(=O)O)C(=O)Nc2ccccc2C(=O)O)cc1OC

>  <GHS category>
5

$$$$
>  <molecule>
COc1ccc2c(c1)CCN(c1ccccc1)C2c1ccc(OCCN2CCCC2)cc1 (stereo unspecified)

>  <GHS category>
4

$$$$
>  <molecule>
NS(=O)(=O)c1ccc(N2CCCCS2(=O)=O)cc1

>  <GHS category>
5

$$$$
>  <molecule>
O=C(O)CNC(=O)c1ccco1

>  <GHS category>
5

$$$$
>  <molecule>
NC(=O)NC1CCC(=O)c2sccc21 (stereo unspecified)

>  <GHS category>
5

$$$$

Give me measured GHS category, please, for this molecule: "OCCN1CNC(=S)NC1"
5

Give me measured GHS category, please, for this molecule: "O=C(NNc1cccc(C(F)(F)F)c1)c1cccnc1Cl"
4

Give me measured GHS category, please, for this molecule: "NC(=O)c1cn(CCO)nc1[N+](=O)[O-]"
5

Give me measured GHS category, please, for this molecule: CCCCC(CC)COC(=O)CCCCCCCCC(=O)OCC(CC)CCCC (stereo unspecified)
5

* * *

- protocol_description: GHS categories as the set defines them, by LD50: 1 up to 5, 2 up to 50, 3 up to 300, 4 up to 2000, 5 above 2000 mg/kg
- applied_conditions: rat; in vivo; po
- Description: […]The data set underlying the modeling effort for this project was initially compiled by NICEATM and U.S. EPA’s CCTE. Briefly, LD50 data were collected from rat acute oral systemic toxicity tests, including limit tests, ranges/confidence intervals, and discrete LD50 values. The full data set included 21,200 LD50 entries for 15,688 substances. […]
Here, each record is paired with measured GHS category data.
Answer field: number only, no words.

Solved entries:
>  <compound>
CC(=O)O[C@@H]1C(=O)O[C@@H]2[C@H]1OC(=O)[C@@H]2OC(C)=O

>  <experimental_value>
5

$$$$
>  <compound>
CCCOC(=O)Nc1nc(N2CC=CCC2)cc2nc(=O)on12

>  <experimental_value>
5

$$$$

Give me measured GHS category, please, for this compound: CCC(C)O[Si](OC(C)CC)(OC(C)CC)OC(C)CC (stereo not drawn)
5

Give me measured GHS category, please, for this compound: "O=C1Cc2ccccc2O1"
5

Give me measured GHS category, please, for this compound: "CCCC(CCC)C(=O)Oc1cc(C(C)C)ccc1C"
5

Give me measured GHS category, please, for this compound: NCCC(=O)NC(Cc1cnc[nH]1)C(=O)O (stereo not drawn)
5

Give me measured GHS category, please, for this compound: CC(=O)OCC(=O)C1(O)C(O)CC2C3CCC4=CC(=O)C=CC4(C)C3=CCC21C (stereo not drawn)
5

Give me measured GHS category, please, for this compound: "CCN1CCN(C(=O)N[C@@H](C(=O)N[C@@H]2C(=O)N3[C@@H]2SC(C)(C)[C@H]3C(=O)O)c2ccccc2)C(=O)C1=O"
5

Give me measured GHS category, please, for this compound: "COP(=O)(OC)Oc1ccc(Cl)cc1Cl"
3

Give me measured GHS category, please, for this compound: "FC(F)(F)c1cccc(-n2nc(OCCN3CCCCC3)c3cccnc32)c1"
4

Give me measured GHS category, please, for this compound: "CC=Cc1ccc(OCCCCC)c(OC)c1"
5

Give me measured GHS category, please, for this compound: "CCCNC(=O)c1sc(-c2ccccc2OC)nc1C"
5

Give me measured GHS category, please, for this compound: "COc1cc(OC)nc(NC(=O)NS(=O)(=O)c2c(-c3nnn(C)n3)cnn2C)n1"
5

Give me measured GHS category, please, for this compound: "COC(=O)CCCCC(=O)OC"
5

Give me measured GHS category, please, for this compound: "CC(C)CCCCCCCCCCCCCCC(=O)O"
5

Give me measured GHS category, please, for this compound: OC1(c2ccccc2)c2c(Cl)cccc2C2=NCCN21 (stereo not drawn)
4

Give me measured GHS category, please, for this compound: "N#Cc1c[nH]cc1-c1cccc(Cl)c1Cl"
5

Give me measured GHS category, please, for this compound: "O=CC=Cc1ccco1"
4

Give me measured GHS category, please, for this compound: CN1CC(CO)CC2c3cccc4c3c(cn4C(C)(C)C)CC21 (stereo not drawn)
4

Give me measured GHS category, please, for this compound: O=COC1CCC2CCCCC2C1 (stereo not drawn)
5

Give me measured GHS category, please, for this compound: "Cc1cc2cccnc2n(-c2cccc(C(F)(F)F)c2)c1=O"
3

Give me measured GHS category, please, for this compound: "C/C=C(\C)C(=O)O[C@H]1C[C@@H](OC(C)=O)[C@@]2(C(=O)OC)CO[C@H]3[C@@H](O)[C@@](C)([C@]45O[C@@]4(C)[C@H]4C[C@@H]5O[C@@H]5OC=C[C@@]54O)[C@H]4[C@]1(CO[C@]4(O)C(=O)OC)[C@@H]32"
5

Give me measured GHS category, please, for this compound: CCOC(=O)C(C)OC(=O)c1cc(Oc2ccc(C(F)(F)F)cc2Cl)ccc1[N+](=O)[O-] (stereo not drawn)
5

* * *

- protocol_description: GHS categories as the set defines them, by LD50: 1 up to 5, 2 up to 50, 3 up to 300, 4 up to 2000, 5 above 2000 mg/kg
- applied_conditions: rat; in vivo; po
Here, each record is paired with measured GHS category data.
Answer field: number only, no words.

Solved entries:
>  <molecule>
CCOC(=O)CCN(C(=O)c1ccc2c(c1)nc(CCl)n2C)c1ccccn1

>  <GHS category>
4

$$$$
>  <molecule>
CC(=O)N(CC(O)CO)c1c(I)c(C(=O)NCC(O)CO)c(I)c(C(=O)NCC(O)CO)c1I (stereo unspecified)

>  <GHS category>
5

$$$$
>  <molecule>
N#CCC(=O)c1ccccc1Cl

>  <GHS category>
5

$$$$
>  <molecule>
Cc1ccc(S(=O)(=O)NC(=O)NC(=O)C(Cl)(Cl)Cl)cc1

>  <GHS category>
5

$$$$
>  <molecule>
CCOC(=O)[C@H](CCc1ccccc1)N[C@@H](C)C(=O)N1[C@H](C(=O)O)C[C@H]2CCCC[C@@H]21

>  <GHS category>
5

$$$$
>  <molecule>
NC(=O)Oc1ccc(Br)cc1C(=O)Oc1ccccc1

>  <GHS category>
5

$$$$
>  <molecule>
CCN(CC)C(C)C(=O)c1ccccc1 (stereo unspecified)

>  <GHS category>
4

$$$$
>  <molecule>
CCCC(=O)N(C)C(=O)Oc1cccc2c1OCO2

>  <GHS category>
4

$$$$
>  <molecule>
CC(C)(C)CC(C)(C)c1ccc(O)c(Cc2ccc(Cl)cc2Cl)c1

>  <GHS category>
5

$$$$
>  <molecule>
COc1ccccc1C1NC(=O)CCS1 (stereo unspecified)

>  <GHS category>
5

$$$$

Give me measured GHS category, please, for this molecule: "CCOC(=O)C(=O)Nc1nc(-c2ccc(OC)cc2)cs1"
5

* * *

Here, each record is paired with measured GHS category data.
- protocol_description: GHS categories as the set defines them, by LD50: 1 up to 5, 2 up to 50, 3 up to 300, 4 up to 2000, 5 above 2000 mg/kg
- applied_conditions: rat; in vivo; po

>  <molecule>
COc1ccc(-c2nc(C)c(C(N)=O)s2)cc1

>  <GHS category>
5

$$$$

Give me measured GHS category, please, for this molecule: "N[C@@H](CC(=O)N1CCn2c(nnc2C(F)(F)F)C1)Cc1cc(F)c(F)cc1F"
5

Give me measured GHS category, please, for this molecule: CCC(C)C(C#N)(CCN(CC=C(C)C)CC=C(C)C)c1cccc2ccccc12 (centres undefined)
4

Give me measured GHS category, please, for this molecule: "CCOC(C)(C)CC"
5

Give me measured GHS category, please, for this molecule: CCCC1(C)COC(Cn2cncn2)(c2cc3ccccc3o2)OC1 (centres undefined)
4

Give me measured GHS category, please, for this molecule: "COc1cc2nc(N3CCC(CN(C)C(=O)c4ccco4)CC3)nc(N)c2cc1OC"
4

Give me measured GHS category, please, for this molecule: CCOC(=O)C(C)O (centres undefined)
5
